Exercise: state measured Zea mays (Efficacy in %) for each of the compounds provided.
- System: Zea mays
- test.protocol: Crop compatibility post-emergence (greenhouse pot trial)
- Assay type: in vivo
- reported.conditions: application rate 20 g/ha
One number for each entry, in %.

Please review the following examples before continuing.
CC(Sc1cc(-n2c(=O)cc(C(F)(F)F)n(C)c2=O)c(F)cc1Cl)C(=O)OCC1CCOC1 (stereo not shown) [I.1-72] | 20
CC(Sc1cc(-n2c(=O)cc(C(F)(F)F)n(C)c2=O)c(F)cc1Cl)C(=O)NCC1CCCO1 (stereo not shown) [I.1-271] | 10

For every item in the list below, what is its measured Zea mays (Efficacy in %)?
1. CC(Sc1cc(-n2c(=O)cc(C(F)(F)F)n(C)c2=O)c(F)cc1Cl)C(=O)OCC1CCCS1 (stereo not shown) [I.1-81]
2. CC(Sc1cc(-n2c(=O)cc(C(F)(F)F)n(C)c2=O)c(F)cc1Cl)C(=O)NCC1CCOC1(C)C (stereo not shown) [I.1-227]

[10, 20]

----------
- Tested on: Zea mays
- test.protocol: Crop compatibility pre-emergence (greenhouse pot trial)
- Type: in vivo
- reported.conditions: application rate 20 g/ha, effect vs untreated controls
reported.metric: Zea mays (Efficacy in %)
Numbers only, in %.

Please review the following examples before continuing.
CC(Sc1cc(-n2c(=O)cc(C(F)(F)F)n(C)c2=O)c(F)cc1Cl)C(=O)NCC1CCCO1 (stereo not drawn) [I.1-271] | 0
CCOCCOC(=O)C(C)Sc1cc(-n2c(=O)cc(C(F)(F)F)n(C)c2=O)c(F)cc1Cl (stereo not drawn) [I.1-2] | 0

Could you share which Zea mays (Efficacy in %) value was measured for C=CCN(C(=O)C(C)Sc1cc(-n2c(=O)cc(C(F)(F)F)n(C)c2=O)c(F)cc1Cl)C(C)COC (stereo not drawn) [I.1-335] ?
20

----------
Exercise: state measured Triticum aestivum (Efficacy in %) for each of the compounds provided.
- System: Triticum aestivum
- test.protocol: Crop compatibility post-emergence (greenhouse pot trial)
- Format: in vivo
- reported.conditions: application rate 5 g/ha
- From the text: Seeds of mono- and dicotyledonous weed plants and crop plants are laid out in sandy loam soil in plastic or wood-fiber pots, covered with earth and grown under controlled growth conditions in a greenhouse. […] After the trial plants had stood for about 3 weeks in the greenhouse, under optimal growth conditions, the effect of the preparations was scored visually by comparison with untreated controls. […] Crop plant compatibilities were also scored correspondingly. […]
Numbers only, in %.

Please review the following examples before continuing.
CCC(Sc1cc(-n2c(=O)c(C)c(C(F)(F)F)n(C)c2=O)c(F)cc1Cl)C(=O)OCC1CCCO1 (centres unmarked) | 0
CC(Sc1cc(-n2c(=O)cc(C(F)(F)F)n(C)c2=O)c(F)cc1Cl)C(=O)NCC1CCCCO1 (centres unmarked) | 20
COCCCOC(=O)C(C)Sc1cc(-n2c(=O)cc(C(F)(F)F)n(C)c2=O)c(F)cc1Cl (centres unmarked) | 20
CC(Sc1cc(-n2c(=O)cc(C(F)(F)F)n(C)c2=O)c(F)cc1Cl)C(=O)OC1CCSCC1 (centres unmarked) | 10
COCCOC(=O)C(C)Sc1cc(-n2c(=O)cc(C(F)(F)F)n(C)c2=O)c(F)cc1Cl (centres unmarked) | 20

For every item in the list below, what is its measured Triticum aestivum (Efficacy in %)?
1. CCC(Sc1cc(-n2c(=O)cc(C(F)(F)F)n(C)c2=O)c(F)cc1Cl)C(=O)OCC1CCCCO1 (centres unmarked)
2. CC(Sc1cc(-n2c(=O)cc(C(F)(F)F)n(C)c2=O)c(F)cc1Cl)C(=O)OCC1CCSC1 (centres unmarked)
3. Cc1c(C(F)(F)F)n(C)c(=O)n(-c2cc(SCC(C)(C)C(=O)OCC3CCSC3)c(Cl)cc2F)c1=O (centres unmarked)

1: 20; 2: 0; 3: 0

Provenance of the data: patent US11497212B2
